systemName: human Gal-1 (hGal-1)
Sequence (P09382 2-135 limits assumed): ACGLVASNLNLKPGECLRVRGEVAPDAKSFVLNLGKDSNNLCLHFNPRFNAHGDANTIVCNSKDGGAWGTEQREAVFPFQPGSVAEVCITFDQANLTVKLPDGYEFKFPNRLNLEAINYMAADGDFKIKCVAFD
assayProtocol: Competitive binding assay: binding of biotinylated hGal-1 to microplate-adsorbed asialofetuin (ASF)
conditionSet: Activities on hGal-1; mean values of several measurements
Could you please report measured IC50 for the items listed next?
Give bare numbers, in nM.

For orientation, consider the following solved cases.
[[record]]
molecule = "CO[C@@H]1[C@@H](n2cc(-c3cc(F)c(F)c(F)c3)nn2)[C@@H](O)[C@@H](CO)O[C@@H]1Cc1cc(C2CCN(C(=O)C3CCC3)CC2)on1 [Example 3.50]"
quantitativeresult = 590

[[record]]
molecule = "CO[C@@H]1[C@@H](n2cc(-c3cc(F)c(F)c(F)c3)nn2)[C@@H](O)[C@@H](CO)O[C@@H]1Cc1cc(C2CCCCC2)on1 [Ex 1.65]"
quantitativeresult = 14100


Attention now turns to another entry.
# get_value(readout='IC50', item= CO[C@@H]1[C@@H](n2cc(-c3ccc(F)c(F)c3F)nn2)[C@@H](O)[C@@H](CO)O[C@@H]1Cc1cc(C2CCC2)on1 [Ex 1.226] ) 1190

* * *

systemName: human Gal-1 (hGal-1)
assayProtocol: Competitive binding assay: binding of biotinylated hGal-1 to microplate-adsorbed asialofetuin (ASF)
conditionSet: Activities on hGal-1; mean values of several measurements
assayEndpoint: pIC50
One number for each entry, as −log10 of the molar value.

Illustrative cases are given below, each with its answer.
[[record]]
molecule = "CC(=O)O[C@@H]1[C@@H](n2cc(-c3ccc(C)c(F)c3F)nn2)[C@@H](O)[C@@H](CO)O[C@@H]1Cc1cc([C@@H]2CCC[C@H]2O)on1"
assayendpoint = "pIC50"
quantitativeresult = 4.77

[[record]]
molecule = "CO[C@@H]1[C@@H](n2cc(-c3cc(F)c(F)c(F)c3)nn2)[C@@H](O)[C@@H](CO)O[C@H]1Cc1cn(C2CCN(C(=O)OC(C)(C)C)CC2)nn1"
assayendpoint = "pIC50"
quantitativeresult = 5.52


Would you mind giving pIC50 for every molecule in the list below?
1. CC(C)(C)OC(=O)N1CC(c2cc(C[C@H]3O[C@H](CO)[C@H](O)[C@H](n4cc(-c5cc(F)c(F)c(F)c5)nn4)[C@H]3O)no2)C1
2. CO[C@@H]1[C@@H](n2cc(-c3ccc(F)c(F)c3F)nn2)[C@@H](O)[C@@H](CO)O[C@@H]1Cc1cc(C2(C)CCOCC2)no1
3. CC(=O)O[C@@H]1[C@@H](n2cc(-c3cc(F)c(F)c(F)c3)nn2)[C@@H](O)[C@@H](CO)O[C@@H]1CC1=NO[C@@H](C2CCN(C(C)=O)CC2)C1
4. OC[C@H]1O[C@H](Cc2cc(C3CCC4(CC3)OCCO4)on2)[C@H](O)[C@@H](n2cc(-c3cc(F)c(F)c(F)c3)nn2)[C@H]1O
5. CN1CCC(C2=NOC(C[C@H]3O[C@H](CO)[C@H](O)[C@H](n4cc(-c5cc(F)c(F)c(F)c5)nn4)[C@H]3O)C2)CC1 (mixture of isomers)
6. CO[C@@H]1[C@@H](n2cc(-c3cc(F)c(F)c(F)c3)nn2)[C@@H](O)[C@@H](CO)O[C@@H]1Cc1cn(C2CCS(=O)(=NC3CCC(F)(F)CC3)CC2)nn1 (some centres unmarked)

1. 5.54
2. 6.42
3. 5.04
4. 5.17
5. 5.34
6. 6.66

Respectfully, I request pIC50 for each entry included below.
1. CO[C@@H]1[C@@H](n2cc(-c3cc(F)c(F)c(F)c3)nn2)[C@@H](O)[C@@H](CO)O[C@@H]1C[C@H]1CN(C2CCN(C(=O)C(C)C)CC2)C(=O)O1
2. CO[C@@H]1[C@@H](n2cc(-c3ccc(Cl)c(F)c3F)nn2)[C@@H](O)[C@@H](CO)O[C@@H]1Cc1cc(C2(O)CCC2)on1

6.00
5.76

What value of pIC50 has been recorded for this entry: `CO[C@@H]1[C@@H](n2cc(-c3ccc(Br)c(F)c3)nn2)[C@@H](O)[C@@H](CO)O[C@@H]1Cc1cn(C2CCN(C(=O)OCc3ccccc3)CC2)nn1` 6.24

* * *

systemName: human Gal-1 (hGal-1)
assayProtocol: Competitive binding assay: binding of biotinylated hGal-1 to microplate-adsorbed asialofetuin (ASF)
conditionSet: Activities on hGal-1; mean values of several measurements
assayEndpoint: log10 IC50 (log10 of the value in µM)
Friendly reminder: values = log10 of IC50, unit µM.

Look over these answered cases.
[[record]]
compound = "CO[C@@H]1[C@@H](n2cc(-c3cc(F)c(F)c(F)c3)nn2)[C@@H](O)[C@@H](CO)O[C@@H]1CC1=NOC(C2CCN(C(C)=O)CC2)C1 (mixture of isomers)"
systemname = "human Gal-1 (hGal-1)"
assayendpoint = "log10 IC50"
quantitativeresult = 0.08

[[record]]
compound = "OC[C@H]1O[C@H](C[C@H]2CC(C3CCCCC3)=NO2)[C@H](O)[C@@H](n2cc(-c3cc(F)c(F)c(F)c3)nn2)[C@H]1O"
systemname = "human Gal-1 (hGal-1)"
assayendpoint = "log10 IC50"
quantitativeresult = 1.35

[[record]]
compound = "CO[C@@H]1[C@@H](n2cc(-c3ccc(C#N)c(F)c3F)nn2)[C@@H](O)[C@@H](CO)O[C@@H]1Cc1cc(C(C)(C)C)on1"
systemname = "human Gal-1 (hGal-1)"
assayendpoint = "log10 IC50"
quantitativeresult = 0.79

[[record]]
compound = "CO[C@@H]1[C@@H](n2cc(-c3cc(F)c(F)c(F)c3)nn2)[C@@H](O)[C@@H](CO)O[C@@H]1Cn1cc(C2(C)CCOCC2)nn1"
systemname = "human Gal-1 (hGal-1)"
assayendpoint = "log10 IC50"
quantitativeresult = 0.20

[[record]]
compound = "OC[C@H]1O[C@H](Cc2cc(C3(O)CCCC3)on2)[C@H](O)[C@@H](n2cc(-c3cc(F)c(F)c(F)c3)nn2)[C@H]1O"
systemname = "human Gal-1 (hGal-1)"
assayendpoint = "log10 IC50"
quantitativeresult = 1.13

[[record]]
compound = "CO[C@@H]1[C@@H](n2cc(-c3cc(F)c(F)c(F)c3)nn2)[C@@H](O)[C@@H](CO)O[C@@H]1C[C@H]1CC(C2CCNCC2)=NO1"
systemname = "human Gal-1 (hGal-1)"
assayendpoint = "log10 IC50"
quantitativeresult = 1.18

[[record]]
compound = "CO[C@@H]1[C@@H](n2cc(-c3cc(F)c(F)c(F)c3)nn2)[C@@H](O)[C@@H](CO)O[C@@H]1Cc1cc(C(C)(C)CN)no1"
systemname = "human Gal-1 (hGal-1)"
assayendpoint = "log10 IC50"
quantitativeresult = 0.34

[[record]]
compound = "O=c1ccc(C2=NOC(C[C@H]3O[C@H](CO)[C@H](O)[C@H](n4cc(-c5cc(F)c(F)c(F)c5)nn4)[C@H]3O)C2)c[nH]1 (mixture of isomers)"
systemname = "human Gal-1 (hGal-1)"
assayendpoint = "log10 IC50"
quantitativeresult = 0.71


For each of the items listed, what is its log10 IC50?
1. CO[C@@H]1[C@@H](n2cc(-c3cc(F)c(F)c(F)c3)nn2)[C@@H](O)[C@@H](CO)O[C@@H]1C[C@@H]1CC(C2CCN(C(C)=O)CC2)=NO1
2. CO[C@@H]1[C@@H](n2cc(-c3ccc(C)c(F)c3F)nn2)[C@@H](O)[C@@H](CO)O[C@@H]1Cc1cc(C2CCN(S(C)(=O)=O)CC2)on1
3. CC(C)(C)C(=O)N1CCC(c2cc(C[C@H]3O[C@H](CO)[C@H](O)[C@H](n4cc(-c5cc(F)c(F)c(F)c5)nn4)[C@H]3O)no2)CC1

[-0.28, 0.18, 0.56]

* * *

Give pIC50 for every item shown.
systemName: human Gal-1 (hGal-1)
assayProtocol: Competitive binding assay: binding of biotinylated hGal-1 to microplate-adsorbed asialofetuin (ASF)
conditionSet: Activities on hGal-1; mean values of several measurements
Answers are plain numbers, as −log10 of the molar value.

Some molecules with recorded pIC50:
[[record]]
molecule = "CC(C)(C)c1cc(C[C@H]2O[C@H](CO)[C@H](O)[C@H](n3cc(-c4cc(F)c(F)c(F)c4)nn3)[C@H]2O)on1"
quantitativeresult = 5.98

[[record]]
molecule = "CO[C@@H]1[C@@H](n2cc(-c3ccc(Br)c(F)c3)nn2)[C@@H](O)[C@@H](CO)O[C@@H]1CC1CC(C2CCN(C(=O)OC(C)(C)C)CC2)=NO1 (stereo partly drawn)"
quantitativeresult = 5.94

[[record]]
molecule = "CO[C@@H]1[C@@H](n2cc(-c3cc(F)c(F)c(F)c3)nn2)[C@@H](O)[C@@H](CO)O[C@@H]1Cc1cc(C2CCN(CC(C)C)CC2)on1"
quantitativeresult = 5.53


Record pIC50 per entry; entries follow.
1. CO[C@@H]1[C@@H](n2cc(-c3ccc(Cl)c(F)c3F)nn2)[C@@H](O)[C@@H](CO)O[C@@H]1Cc1cc(C2(O)CCCCC2)on1
2. CO[C@@H]1[C@@H](n2cc(-c3cc(F)c(F)c(F)c3)nn2)[C@@H](O)[C@@H](CO)O[C@@H]1CC1=NOC(C2CCN(C(=O)OC(C)(C)C)CC2)C1 (stereo partly drawn)
3. CO[C@@H]1[C@@H](n2cc(-c3cc(F)c(F)c(F)c3)nn2)[C@@H](O)[C@@H](CO)O[C@@H]1CN1CC(C2CCN(C(=O)OC(C)(C)C)CC2)OC1=O (mixture of isomers)
4. O=c1cc(C2=NO[C@H](C[C@H]3O[C@H](CO)[C@H](O)[C@H](n4cc(-c5cc(F)c(F)c(F)c5)nn4)[C@H]3O)C2)cc[nH]1
5. CO[C@@H]1[C@@H](n2cc(-c3ccc(Cl)c(F)c3F)nn2)[C@@H](O)[C@@H](CO)O[C@@H]1Cc1cc(C2(C)CCCC2)no1
6. CO[C@@H]1[C@@H](n2cc(-c3ccc(C)c(F)c3F)nn2)[C@@H](O)[C@@H](CO)O[C@@H]1Cc1cc(C(C)(C)O)no1

1. 5.88
2. 5.51
3. 5.74
4. 6.41
5. 5.75
6. 5.64

Provide pIC50 for all items below, preserving their order.
1. CO[C@@H]1[C@@H](n2cc(-c3cc(F)c(F)c(F)c3)nn2)[C@@H](O)[C@@H](CO)O[C@@H]1Cc1cc(C2CCC2)on1
2. CO[C@@H]1[C@@H](n2cc(-c3cc(F)c(F)c(F)c3)nn2)[C@@H](O)[C@@H](CO)O[C@@H]1Cc1cn(C(C)(C)C)nn1
3. CO[C@@H]1[C@@H](n2cc(-c3ccc(Cl)c(F)c3F)nn2)[C@@H](O)[C@@H](CO)O[C@@H]1Cc1cc(C(C)(C)O)on1

1: 5.50; 2: 5.95; 3: 5.54
